These entries and their values trace back to patent US20250147039A1.

Test Summary: Formation of 1,5-cz-[Ln(Lig)] from Lig and Ln^III ions (metal dependent click-zip), MOPS/NaOH buffer pH 7.0, analytical HPLC (Charts 1, 2)
Measurement Context: Yb^III; after 1 week at 80° C.; MOPS/NaOH buffer pH 7.0
Kindly state conversion to 1,5-cz-[Ln(Lig)], Yb^III for each of the entries shown.
# do not omit the unit; it follows the number

Completed entries (count: 2):
- Smiles String: "[N-]=[N+]=NCc1cccc(CN2CCN(CC(=O)O)CCN(Cc3cccc(C#CC4CC4)n3)CCN(CC(=O)O)CC2)n1"
  conversion to 1,5-cz-[Ln(Lig)], Yb^III: "97%"
- Smiles String: "C#Cc1cccc(CN2CCN(CCC(=O)O)CCN(Cc3cccc(CN=[N+]=[N-])n3)CCN(CCC(=O)O)CC2)n1"
  conversion to 1,5-cz-[Ln(Lig)], Yb^III: "0%"

Below is a list of molecules. For each, state its recorded conversion to 1,5-cz-[Ln(Lig)], Yb^III.
1. C#Cc1cccc(CN2CCN(CC(=O)O)CCN(Cc3cccc(CN=[N+]=[N-])n3)CCN(CC(=O)O)CC2)n1
2. [N-]=[N+]=NCc1cc(-c2ccccc2)cc(CN2CCN(CC(=O)O)CCN(Cc3cccc(C#CCN)n3)CCN(CC(=O)O)CC2)n1

OUTPUT:
1: 95%; 2: 96%

====

Test Summary: Formation of 1,5-cz-[M(Lig)] from Lig and M^III ions (metal dependent click-zip) (Charts 4, 5)
Format: physicochemical
Measurement Context: 1 week at 80° C.; MOPS/NaOH buffer pH 7.0; TD728, TD827 in 50% i-PrOH; TD714 sum of two diastereoisomers
// class assignment uses conversion to 1,5-cz-[M(Lig)], Y^III with these ranges: low end = under 10%, middle = from 10% up to 50%, high end = 50% and over

Previously resolved entries follow.
- Smiles String: "C#Cc1cccc(CN2CCN(CC(=O)O)CCN(Cc3cc(C(=O)OC(C)(C)C)cc(CN=[N+]=[N-])n3)CCN(CC(=O)O)CC2)n1"
  Class Assignment: "low end"
- Smiles String: "[N-]=[N+]=NCc1cccc(CN2CCN(CC(=O)O)CCN(Cc3cccc(C#CI)n3)CCN(CC(=O)O)CC2)n1"
  Class Assignment: "middle"
- Smiles String: "CC(C)(C#Cc1cccc(CN2CCN(CC(=O)O)CCN(Cc3cccc(CN=[N+]=[N-])n3)CCN(CC(=O)O)CC2)n1)NC(=O)OC(C)(C)C"
  Class Assignment: "low end"
- Smiles String: "C#Cc1cccc(CN2CCN(CC(=O)NCC(=O)O)CCN(Cc3cc(-c4ccccc4)cc(CN=[N+]=[N-])n3)CCN(CC(=O)NCC(=O)O)CC2)n1"
  Class Assignment: "middle"
- Smiles String: "C#Cc1cccc(CN2CCN(CC(=O)O)CCN(Cc3cc(C(F)(F)F)cc(CN=[N+]=[N-])n3)CCN(CC(=O)O)CC2)n1"
  Class Assignment: "high end"

INPUT: Which class does C#Cc1cccc(CN2CCN(CC(N)=O)CCN(Cc3cc(-c4ccccc4)cc(CN=[N+]=[N-])n3)CCN(CC(N)=O)CC2)n1 fall in?
OUTPUT: low end

====

Test Summary: Dissociation of chelates in aq. 0.1M HCl at 80° C. (acid decomplexation kinetic inertness) (Chart 19)
Assay type: physicochemical
Measurement Context: 1 hour
Provide the recorded fraction of intact chelate for the entries that follow.
One number for each entry, in %.

Consider the reported fraction of intact chelate for these compounds:
- Compound: "O=C1C[N@@]2CC[N@]3CC[N@@](CC[N@](CC2)Cc2cccc(n2)-c2cnnn2Cc2cc(-c4ccccc4)cc(n2)C3)CC(=O)[O][Y][O]1 [TD649]"
  fraction of intact chelate (%): 100
- Compound: "O=C1C[N@@]2CC[N@]3CC[N@@](CC[N@](CC2)Cc2cccc(n2)-c2cnnn2Cc2cc(-c4ccccc4)cc(n2)C3)CC(=O)[O][Yb][O]1 [TD602]"
  fraction of intact chelate (%): 100

Hi, could you look up fraction of intact chelate for each item in my list?
1. O=C1C[N@@]2CC[N@]3CC[N@@](CC[N@](CC2)Cc2cccc(n2)-c2cnnn2Cc2cc(-c4ccccc4)cc(n2)C3)CC(=O)[O][Lu][O]1 [TD522]
2. O=C1C[N@@]2CC[N@]3CC[N@@](CC[N@](CC2)Cc2cccc(n2)-c2cnnn2Cc2cc(-c4ccccc4)cc(n2)C3)CC(=O)[O][Tm][O]1 [TD601]

OUTPUT:
1. 100
2. 100
